Where do these numbers come from? They come from patent EP4813979A1.

# System: A431
# ASSAY: Cell anti-proliferation experiment (CTG)
# Assay type: cell-based
# MEASUREMENT_CONTEXT: Homo sapiens, A-431; A431 (wild-type EGFR), 72 hours, class symbol
pIC50: −log10 of the molar value.
TEST_READOUT: pIC50

COMPOUND	TEST_VALUE
CCc1cc(Nc2ncc(Cl)c(Nc3ccccc3C(=O)NC)n2)c(OC)cc1N1CCN(C(=O)CN2CCC(c3cc4c(cc3F)c(N3CCC(=O)NC3=O)nn4C)C(F)(F)C2)CC1 (centres unmarked)	< 6.00

Ask: Any idea what its pIC50 is? The compound is CCc1cc(Nc2ncc(Br)c(Nc3ccccc3P(C)(C)=O)n2)c(OC)cc1N1CC2(CCN(C(=O)CN3CCC(c4cc5c(cc4F)c(N4CCC(=O)NC4=O)nn5C)C(F)(F)C3)CC2)C1 (centres unmarked)
Result: < 6.00

Ask: Any idea what its pIC50 is? The compound is CCc1cc(Nc2ncc(Cl)c(Nc3ccccc3C(=O)NC)n2)c(OC)cc1N1CCN(C(=O)CN2CCC(c3ccc4c(N5CCC(=O)NC5=O)nn(C)c4c3)C(F)(F)C2)CC1 (centres unmarked) [Comparative Example 1-1, reference compound]
Result: 6.00 to 7.00

Ask: Any idea what its pIC50 is? The compound is CCc1cc(Nc2ncc(Br)c(Nc3ccccc3P(C)(C)=O)n2)c(OC)cc1N1CCN(C(=O)CN2CCC(c3cc4c(cc3F)c(N3CCC(=O)NC3=O)nn4C)C(F)(F)C2)CC1 (centres unmarked)
Result: < 6.00

Ask: Any idea what its pIC50 is? The compound is CCc1cc(Nc2ncc(Cl)c(Nc3ccc4nccnc4c3P(C)(C)=O)n2)c(OC)cc1N1CCN(C(=O)CN2CCC(c3cc4c(cc3F)c(N3CCC(=O)NC3=O)nn4C)C(F)(F)C2)CC1 (centres unmarked)
Result: 7.00 to 8.00
